Molecular target: Sodium-dependent serotonin transporter (Homo sapiens, UniProt P31645)
Sequence (P31645 whole entry, looked up): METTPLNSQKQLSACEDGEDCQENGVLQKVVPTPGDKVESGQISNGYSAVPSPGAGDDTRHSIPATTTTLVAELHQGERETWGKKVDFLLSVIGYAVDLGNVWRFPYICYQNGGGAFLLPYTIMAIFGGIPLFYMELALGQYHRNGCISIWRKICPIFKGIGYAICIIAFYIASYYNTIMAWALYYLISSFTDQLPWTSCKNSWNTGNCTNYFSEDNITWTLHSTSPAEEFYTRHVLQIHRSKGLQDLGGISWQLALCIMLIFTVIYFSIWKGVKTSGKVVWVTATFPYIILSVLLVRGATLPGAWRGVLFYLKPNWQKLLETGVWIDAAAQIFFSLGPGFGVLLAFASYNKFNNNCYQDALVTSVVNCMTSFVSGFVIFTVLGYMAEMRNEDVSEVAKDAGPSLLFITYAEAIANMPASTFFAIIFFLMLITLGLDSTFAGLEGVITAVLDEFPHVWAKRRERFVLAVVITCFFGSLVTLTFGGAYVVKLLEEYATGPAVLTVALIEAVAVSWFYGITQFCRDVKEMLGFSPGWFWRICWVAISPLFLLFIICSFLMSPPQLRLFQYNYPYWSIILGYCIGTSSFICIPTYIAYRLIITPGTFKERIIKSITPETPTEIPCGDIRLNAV
Assay: Inhibition of [3H]-5-HT reuptake in human SERT transfected into HEK293 cells at 1 uM by liquid scintillation counting method relative to venlafaxine HCl
Type: cell-based
experimental.readout: fold change (FC)

Brc1ccc(N2CCN(CCCN3CCC(Cc4ccccc4)CC3)CC2)cc1 :: 0.87
Clc1ccc(N2CCN(CCCN3CCC(Cc4ccccc4)CC3)CC2)cc1 :: 0.44
c1ccc(CC2CCN(CCN3CCN(c4ncccn4)CC3)CC2)cc1 :: 0.33

Quick one: give me fold change (FC) for each item below, same order please.
1. Cc1cccc(C)c1N1CCN(CCCN2CCC(Cc3ccccc3)CC2)CC1
2. c1ccc(CC2CCN(CCCN3CCN(c4ccccn4)CC3)CC2)cc1
3. c1ccc(CC2CCN(CCN3CCN(c4ccccc4)CC3)CC2)cc1
4. c1ccc(CC2CCN(CCCN3CCN(c4ncccn4)CC3)CC2)cc1
5. FC(F)(F)c1ccc(N2CCN(CCN3CCC(Cc4ccccc4)CC3)CC2)cc1
6. Clc1cccc(N2CCN(CCCN3CCC(Cc4ccccc4)CC3)CC2)c1Cl
7. Fc1ccc(N2CCN(CCN3CCC(Cc4ccccc4)CC3)CC2)cc1
8. c1ccc(CC2CCN(CCCN3CCN(c4ccccc4)CC3)CC2)cc1

Completion:
1: 2.83; 2: 0.32; 3: 0.89; 4: 0.08; 5: 0.69; 6: 0.79; 7: 0.41; 8: 0.58

Quick one: give me fold change (FC) for each item below, same order please.
1. Fc1ccc(N2CCN(CCCN3CCC(Cc4ccccc4)CC3)CC2)cc1
2. Brc1ccc(N2CCN(CCN3CCC(Cc4ccccc4)CC3)CC2)cc1
3. Clc1cccc(N2CCN(CCN3CCC(Cc4ccccc4)CC3)CC2)c1
4. COc1ccccc1N1CCN(CCCN2CCC(Cc3ccccc3)CC2)CC1
5. Clc1ccc(N2CCN(CCCN3CCC(Cc4ccccc4)CC3)CC2)c(Cl)c1
6. FC(F)(F)c1ccc(N2CCN(CCCN3CCC(Cc4ccccc4)CC3)CC2)cc1

Completion:
[0.27, 1.01, 0.41, 2.4, 1.06, 0.76]

Quick one: give me fold change (FC) for each item below, same order please.
1. c1ccc(CC2CCN(CCN3CCN(c4ccccn4)CC3)CC2)cc1
2. Clc1cccc(N2CCN(CCN3CCC(Cc4ccccc4)CC3)CC2)c1Cl
3. Clc1ccc(N2CCN(CCN3CCC(Cc4ccccc4)CC3)CC2)cc1
4. Clc1cccc(N2CCN(CCCN3CCC(Cc4ccccc4)CC3)CC2)c1
5. Cc1cccc(C)c1N1CCN(CCN2CCC(Cc3ccccc3)CC2)CC1
6. COc1ccccc1N1CCN(CCN2CCC(Cc3ccccc3)CC2)CC1
7. Clc1ccc(N2CCN(CCN3CCC(Cc4ccccc4)CC3)CC2)c(Cl)c1

Completion:
0.31
0.64
0.56
0.69
0.93
0.27
0.85
